Listed next: entries and their corresponding pKd.
- MEASUREMENT_TARGET: T1, GFP-9S library array, motif 4 ND N98F;D124R (synthetic construct, N98F;D124R)
- T1 chain: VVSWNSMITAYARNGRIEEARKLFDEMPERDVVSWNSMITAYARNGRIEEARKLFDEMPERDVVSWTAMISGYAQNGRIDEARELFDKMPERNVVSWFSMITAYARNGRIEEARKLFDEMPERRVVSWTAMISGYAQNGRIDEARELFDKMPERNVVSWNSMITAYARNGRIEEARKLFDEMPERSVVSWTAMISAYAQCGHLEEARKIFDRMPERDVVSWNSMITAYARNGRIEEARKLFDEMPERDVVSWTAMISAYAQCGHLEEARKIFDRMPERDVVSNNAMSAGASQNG
- TEST_METHOD_NOTES: high-throughput RNA pulldown from lysate on Ni-NTA beads; HRP: 50 mM Tris pH 8, 150 mM NaCl, 1 mM beta-mercaptoethanol, 50 ug/ml BSA, 3 ug/ml yeast RNA, 0.5% heparin; ITC and FP: Tris pH 8, 200 mM KCl, 5% glycerol; MST: 50 mM Tris pH 8, 200 mM NaCl, 1 mM DTT, BSA, heparin, 0.05% Tween 20
- CONDITION_LABEL: tags: N-terminal His-eGFP; label: 5' IRDye 800CW
Worth noting: pKd values are minus log10 of concentrations stated in mol/L.

BINDER	pKd
AUUAAACGUGA (ssRNA) [IR-rpoA-A]	7.07

Turning now to a further binder:
I would be grateful if you could share the reported pKd for AUUAUACGUGA (ssRNA) [IR-rpoA-U] .
6.76
